# System: HCV genotype 1a (1a-H77) stable subgenomic replicon
# test: genotype 1a Huh-7 stable replicon assay (luciferase reporter)
# Assay type: cell-based, hepatitis C virus (HCV)
# condition_context: Hepatitis C virus, 5% FBS
pEC50: −log10 of the molar value.
measured_parameter: pEC50

chemical_smiles: CC(C)(C)[C@@H]1NC(=O)O[C@@H]2CCC[C@H]2OC/C=C/C(F)(F)c2nc3ccccc3nc2O[C@@H]2C[C@@H](C(=O)N[C@]3(C(=O)NS(=O)(=O)C4(C)CC4)C[C@H]3C(F)F)N(C2)C1=O
reported: > 9.00
//
chemical_smiles: C=C[C@@H]1C[C@]1(NC(=O)[C@@H]1C[C@@H]2CN1C(=O)[C@H](C(C)(C)C)NC(=O)O[C@@H]1CCC[C@H]1OC/C=C/C(F)(F)c1nc3ccccc3nc1O2)C(=O)NS(=O)(=O)C1(C)CC1
reported: > 9.00

###

# Test system: HCV genotype 3a wild-type transient replicon
# test: genotype 3a wild-type transient replicon assay
# Assay type: cell-based, hepatitis C virus (HCV)
# condition_context: Hepatitis C virus
pEC50: −log10 of the molar value.

chemical_smiles: CC[C@@H]1C[C@]1(NC(=O)[C@@H]1C[C@@H]2CN1C(=O)[C@H](C(C)(C)C)NC(=O)O[C@@H]1CCC[C@H]1OC/C=C/C(F)(F)c1nc3ccccc3nc1O2)C(=O)NS(=O)(=O)C1(C)CC1
pEC50: 7.00 to 8.00
--
chemical_smiles: CC(C)(C)[C@@H]1NC(=O)O[C@@H]2CCC[C@H]2OC/C=C/C(F)(F)c2nc3ccccc3nc2O[C@@H]2C[C@@H](C(=O)N[C@]3(C(=O)NS(=O)(=O)C4CC4)C[C@H]3C(F)F)N(C2)C1=O
pEC50: > 8.00
--
chemical_smiles: CC[C@@H]1C[C@]1(NC(=O)[C@@H]1C[C@@H]2CN1C(=O)[C@H](C(C)(C)C)NC(=O)O[C@@H]1CCC[C@H]1OC/C=C/C(F)(F)c1nc3ccccc3nc1O2)C(=O)NS(=O)(=O)C1CC1
pEC50: 7.00 to 8.00

###

# Test system: HCV genotype 1b D168V variant transient replicon
# test: genotype 1b D168V transient replicon assay
# Format: cell-based, hepatitis C virus (HCV)
# condition_context: Hepatitis C virus

chemical_smiles: C=C[C@@H]1C[C@]1(NC(=O)[C@@H]1C[C@@H]2CN1C(=O)[C@H](C(C)(C)C)NC(=O)O[C@@H]1CCC[C@H]1OC/C=C/C(F)(F)c1nc3ccccc3nc1O2)C(=O)NS(=O)(=O)C1(C)CC1
tested_target: HCV genotype 1b D168V variant transient replicon
EC50: < 1 nM
--
chemical_smiles: C=C[C@@H]1C[C@]1(NC(=O)[C@@H]1C[C@@H]2CN1C(=O)[C@H](C(C)(C)C)NC(=O)O[C@@H]1CCC[C@H]1OC/C=C/C(F)(F)c1nc3ccccc3nc1O2)C(=O)NS(=O)(=O)C1CC1
tested_target: HCV genotype 1b D168V variant transient replicon
EC50: < 1 nM
--
chemical_smiles: CC(C)(C)[C@@H]1NC(=O)O[C@@H]2CCC[C@H]2OC/C=C/C(F)(F)c2nc3ccccc3nc2O[C@@H]2C[C@@H](C(=O)N[C@]3(C(=O)NS(=O)(=O)C4(C)CC4)C[C@H]3C(F)F)N(C2)C1=O
tested_target: HCV genotype 1b D168V variant transient replicon
EC50: < 1 nM
--
chemical_smiles: CC[C@@H]1C[C@]1(NC(=O)[C@@H]1C[C@@H]2CN1C(=O)[C@H](C(C)(C)C)NC(=O)O[C@@H]1CCC[C@H]1OC/C=C/C(F)(F)c1nc3ccccc3nc1O2)C(=O)NS(=O)(=O)C1(C)CC1
tested_target: HCV genotype 1b D168V variant transient replicon
EC50: 1 to 100 nM
--
chemical_smiles: CC(C)(C)[C@@H]1NC(=O)O[C@@H]2CCC[C@H]2OC/C=C/C(F)(F)c2nc3ccccc3nc2O[C@@H]2C[C@@H](C(=O)N[C@]3(C(=O)NS(=O)(=O)C4CC4)C[C@H]3C(F)F)N(C2)C1=O
tested_target: HCV genotype 1b D168V variant transient replicon
EC50: 1 to 100 nM
--
chemical_smiles: CC[C@@H]1C[C@]1(NC(=O)[C@@H]1C[C@@H]2CN1C(=O)[C@H](C(C)(C)C)NC(=O)O[C@@H]1CCC[C@H]1OC/C=C/C(F)(F)c1nc3ccccc3nc1O2)C(=O)NS(=O)(=O)C1CC1
tested_target: HCV genotype 1b D168V variant transient replicon
EC50: 1 to 100 nM
